tested on: colony formation; experiment: Colony formation assay of compounds 86-98 (cell line not given); format: cell-based; conditions: Table 3
assay-metric: IC50

Q. Any idea what its IC50 is? The compound is `COc1cc(C=C2NC(=O)NC2=O)ccc1OCc1ccc(Br)cc1`
A. > 100 µM
